assayProcedure: Color tone of the dye
Assay type: physicochemical
recordedConditions: Tables 1-9
assayMetric: Color tone

> print(dat)
                               samplesmiles  assaymetric  reportedvalue
1  CCc1cccc(CC)c1Nc1c(F)c2c(c(F)c1Nc1c(CC)cccc1CC)C(=O)c1c(O)ccc(O)c1C2=O   Color tone           Cyan
2  O=C1c2c(O)ccc(O)c2C(=O)c2c(Sc3ccccc3)c(Sc3ccccc3)c(Sc3ccccc3)c(Sc3ccccc3)c21   Color tone          Brown
3  O=C1c2c(O)ccc(O)c2C(=O)c2c(Nc3ccccc3)c(Sc3ccccc3)c(Sc3ccccc3)c(Nc3ccccc3)c21   Color tone           Cyan

Entry source: patent US5608091A
